test system: PXR homodimer (NR concentration 270 nM); assay: PBM binding z-score (relative to random genomic background probes); higher = stronger binding; sequences stand for … in GC…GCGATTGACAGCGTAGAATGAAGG
experimental_readout: PBM binding z-score
Answer with the value's number alone.

Known results for sequences:
* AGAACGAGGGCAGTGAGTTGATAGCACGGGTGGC | 2
* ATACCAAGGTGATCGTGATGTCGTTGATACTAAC | 0.104
* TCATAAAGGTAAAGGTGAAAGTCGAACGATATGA | -0.127
* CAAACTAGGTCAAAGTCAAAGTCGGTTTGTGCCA | -0.171
* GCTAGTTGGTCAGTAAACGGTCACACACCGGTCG | 0.06

IN: Param readout= PBM binding z-score; system= PXR homodimer (NR concentration 270 nM); entry= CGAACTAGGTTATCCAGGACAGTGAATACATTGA ; returns value.
OUT: 0.527

IN: Param readout= PBM binding z-score; system= PXR homodimer (NR concentration 270 nM); entry= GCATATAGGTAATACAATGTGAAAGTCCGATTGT ; returns value.
OUT: 0.544

IN: Param readout= PBM binding z-score; system= PXR homodimer (NR concentration 270 nM); entry= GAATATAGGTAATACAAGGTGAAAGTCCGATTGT ; returns value.
OUT: 0.722

IN: Param readout= PBM binding z-score; system= PXR homodimer (NR concentration 270 nM); entry= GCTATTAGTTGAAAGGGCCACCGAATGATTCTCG ; returns value.
OUT: -0.184

IN: Param readout= PBM binding z-score; system= PXR homodimer (NR concentration 270 nM); entry= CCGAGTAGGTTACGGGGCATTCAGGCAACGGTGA ; returns value.
OUT: -0.35

IN: Param readout= PBM binding z-score; system= PXR homodimer (NR concentration 270 nM); entry= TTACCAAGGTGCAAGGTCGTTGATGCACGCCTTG ; returns value.
OUT: 0.648

IN: Param readout= PBM binding z-score; system= PXR homodimer (NR concentration 270 nM); entry= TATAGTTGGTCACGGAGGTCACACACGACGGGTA ; returns value.
OUT: 1.06

IN: Param readout= PBM binding z-score; system= PXR homodimer (NR concentration 270 nM); entry= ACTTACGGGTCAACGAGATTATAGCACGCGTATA ; returns value.
OUT: 0.376

IN: Param readout= PBM binding z-score; system= PXR homodimer (NR concentration 270 nM); entry= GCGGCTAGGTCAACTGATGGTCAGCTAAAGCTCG ; returns value.
OUT: -0.666

IN: Param readout= PBM binding z-score; system= PXR homodimer (NR concentration 270 nM); entry= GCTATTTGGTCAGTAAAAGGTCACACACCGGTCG ; returns value.
OUT: 1.46

IN: Param readout= PBM binding z-score; system= PXR homodimer (NR concentration 270 nM); entry= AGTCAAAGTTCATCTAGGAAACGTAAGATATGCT ; returns value.
OUT: 3.68

IN: Param readout= PBM binding z-score; system= PXR homodimer (NR concentration 270 nM); entry= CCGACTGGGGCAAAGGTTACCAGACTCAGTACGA ; returns value.
OUT: -0.264

IN: Param readout= PBM binding z-score; system= PXR homodimer (NR concentration 270 nM); entry= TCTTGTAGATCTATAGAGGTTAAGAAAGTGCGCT ; returns value.
OUT: -0.0488

IN: Param readout= PBM binding z-score; system= PXR homodimer (NR concentration 270 nM); entry= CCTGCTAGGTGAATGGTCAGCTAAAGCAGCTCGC ; returns value.
OUT: -0.722

IN: Param readout= PBM binding z-score; system= PXR homodimer (NR concentration 270 nM); entry= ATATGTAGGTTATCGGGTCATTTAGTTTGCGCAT ; returns value.
OUT: 4.87

IN: Param readout= PBM binding z-score; system= PXR homodimer (NR concentration 270 nM); entry= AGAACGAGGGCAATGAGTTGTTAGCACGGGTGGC ; returns value.
OUT: 1.26
